experiment: protein stability index of a GFP-peptide fusion (yeast GPS) (PSI 1-4); higher = more stable; sorted into four equal gates, so the index is relative within each strain; conditions: doa10∆
I'd appreciate it if you could supply protein stability index values for the items below.
When you answer, write just the number.

INPUT: Any idea what its protein stability index is? The sequence is YLESLFAKQVDVQLERV [IRR1]
OUTPUT: 2.49

INPUT: If you can, please state the reported protein stability index value of YSKIPNILSNKPGQNNR [RRP6] .
OUTPUT: 2.16

INPUT: Give its protein stability index value. Item: LELAGMDALYEKIWFAI [SIR3]
OUTPUT: 1.41

INPUT: Which protein stability index is listed for GLHSSEYKLRSLTLSFI [ECM29] ?
OUTPUT: 2.18

INPUT: # lookup: protein stability index of GTIDKLQLELTIEDIAV [RPO31]
OUTPUT: 2.41

INPUT: // protein stability index lookup, key: LFQVESAPKISSEIDRE [SIR4]
OUTPUT: 2.35

INPUT: Tell me the measured protein stability index of MSGILHCEDKDYKTAFS [RPN6] , please.
OUTPUT: 2.95

INPUT: So what does the record say about protein stability index for VKKVIEINPFLLGTMAG [PRE2] ?
OUTPUT: 1.37

INPUT: What measured protein stability index goes with SNMQKSLLPYYHLTKAV [RPN3] ?
OUTPUT: 2.02

INPUT: Which protein stability index is listed for QEWLANLKLISVSLVDE [SIR4] ?
OUTPUT: 2.77

INPUT: What protein stability index value was documented for this sequence, GMTPCTVSPDFVAATTN [FAS1] ?
OUTPUT: 1.83

INPUT: Given the entry AGVEDVYTQSNGKTRTL [RPS2] , report its measured protein stability index.
OUTPUT: 2.76

INPUT: Request the reported protein stability index associated with ALIKFMEYHISNTDETK [FAS2]
OUTPUT: 2.77

INPUT: I would be grateful if you could share the reported protein stability index for LKSIESLKLENSDLEGK [SMC2] .
OUTPUT: 3.07

INPUT: protein stability index lookup needed for ISPESVFGTLGELIKVN [SMC3] , thanks.
OUTPUT: 2.15
